These entries and their values trace back to paper PMC9007139.

measurement description: In vivo pharmacokinetics, rat
Parameters: species or system Male Sprague-Dawley rats
condition parameters: male, Sprague-Dawley, plasma, iv, 0.3 mg/kg
readout label: clearance (L/h/kg)
Your answer should be a plain number; it is taken to be in L/h/kg.

Record excerpt, results attached:
>>> experimental_result("CNC(=O)c1cn(C[C@H](F)CCc2ccc(NC(=O)Cc3cc(OC4CC(F)(F)C4)cc(C)n3)nn2)nn1")
0.018
>>> experimental_result("CNC(=O)c1cn(C[C@H](F)CCc2ccc(NC(=O)Cc3cc(-c4cccc(OC(F)(F)F)c4)ccn3)nn2)nn1")
0.48

Q. Reported clearance, compound CNC(=O)c1cn(C[C@H](F)CCc2ccc(NC(=O)Cc3cc(OC4CC(F)(F)C4)ccn3)nn2)nn1 : ____
A. 0.18

Q. Find the recorded clearance belonging to CNC(=O)c1cn(C[C@H](F)CCc2ccc(NC(=O)Cc3cc(C(F)(F)F)cc(C)n3)nn2)nn1 and report it.
A. 0.06
